Quick list: PBM binding z-score per entry.
Tested on: THRa homodimer (NR concentration 90 nM)
Experiment: PBM binding z-score (relative to random genomic background probes); higher = stronger binding; sequences stand for … in GC…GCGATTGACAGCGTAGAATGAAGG
# print the numeric value only

Kindly note the recorded PBM binding z-score for `CCTCGGAGGACAACAGGAGGTCAGATCTGCCAGA` , which is 1.03

PBM binding z-score recorded for this sequence, `ACAGACAGGTGAGTGAAAGTAACTCAGCTGGACG` , is -0.737

Item: `TCTCGTAGGACACGAAGGTCAGAGCTTTCCAGAG` | PBM binding z-score: 0.187

For this sequence ( `GGCACGAGGGCAAAGTTGATAGCATCTGTCGACG` ), measured PBM binding z-score is -0.552

* * *

Each item that follows carries a reported PBM binding z-score.
Tested on: PPARg DBDmut:RXRa IVT, anti-PPARg (DBD mutation: PPARg1 K132A/R137A, NR concentration 270 nM, RXRa partner concentration 90 nM)
Experiment: PBM binding z-score (relative to random genomic background probes); higher = stronger binding; sequences stand for … in GC…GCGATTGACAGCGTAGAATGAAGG
When you answer, write just the number.

>>> print(df.to_string())
                        sequence_code  measured_result
0  TAGCCTAGGTCATTGGGCCAGTCTAGTACGCATC           -0.286

Sure, the documented PBM binding z-score for `CGTCACAGTTCAACTAAGGTAACGTAAAGCACGC` is 0.467

Summary for this sequence, `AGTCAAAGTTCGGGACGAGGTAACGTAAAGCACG` : PBM binding z-score is 0.226

Documented PBM binding z-score of `ATCTCTTGGTAAAGTTCAGTGAAAGATCGATAGA` : 1.4

In plain terms, `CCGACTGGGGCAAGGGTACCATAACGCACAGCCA` has a documented PBM binding z-score of 0.123

PBM binding z-score in this record for `GAGACTGGGGCATCAGCAGGTTACCATAACTTAA` : 0.663

Note to self: PBM binding z-score recorded for `TTTTGTAGATCAACAGGAGGTTAAGAAAGATCGA` was 1.18

sequence `CCTAGTTGGTCAGGAGGTCACAGACCGGATATGA` , PBM binding z-score observed: 0.154

Measured PBM binding z-score, `CAAACTAGGTCAAGTTCAAAGTCGGTTTGTGCCA` : 3.54

// field: PBM binding z-score; key: `GCTAGTTGCTCAGTAAAAGGTCACACACCGGTCG` ; value = -0.262

Entry `CCGACTGGGGCAGAAATGTTACCATACCATCCGG` ; PBM binding z-score = -0.699

Documented PBM binding z-score of `ACTAGTTGGTCAGCGGAGGTCACACACAATTCGG` : 1.36

Sure, the documented PBM binding z-score for `CCTTACGGGTCACTCCAGGATATAGCATCGGAGT` is 0.582

The recorded PBM binding z-score for entry `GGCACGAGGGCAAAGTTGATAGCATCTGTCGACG` equals -0.61

Briefly, PBM binding z-score measured for `CCGACTGCGGCAAGGTTACCATAACGCACAGCCA` : -0.21

Field PBM binding z-score (entry `CCTTACGGGTCACTGACAGGTTATACCATTTGGA` ) reads 0.775

In plain terms, `CGAACGAGGGCATGTGTTGATAGCAAATGCCGAT` has a documented PBM binding z-score of 0.15

Per the record, `CGAACTATGTCATTGACAGGACAGTGAATAGTAA` has PBM binding z-score of 0.536

Input `ATCGAAAGGTCGAGGTGAGGATAGAGAAAGGGAA` . Output PBM binding z-score: 1.29

PBM binding z-score measured on `GCTTACGGGTCGAAGGTTATAGCATGAATAGAAT` = 0.973

For record `ATATGTAGGTTACATCCGGGTCAGTCAGGCTATG` the listed PBM binding z-score is 2.22

* * *

Tested on: RARg:RXRa (NR concentration 270 nM, RXRa partner concentration 90 nM)
Test: PBM binding z-score (relative to random genomic background probes); higher = stronger binding; sequences stand for … in GC…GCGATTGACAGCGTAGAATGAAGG
Measured PBM binding z-score by item

Take a look at these entries with their results.
                        sequence_code  measured_result
0  CAAACTAGGTCAAGGTCAATGTCGGTTTGTGCCA             5.85
1  TCTATTAGTTGAAGGGCTACCGACGAGTCCGTTT           0.0303
2  CGTCCAAAGTCAAGGTCAGTGAAAGAGACTCGAA                3
3  TCAGACTGGTGAAGGTAACTCAGGTACGCAGTCG           -0.218
4  AGAATGAGGTTATTAAGATCAGGAAATTGCGGTC              1.3
5  CCTTACGGATCAAGGTTATAGCACGGGTGGTACG            0.538
6  CACACAGGGTCAGCTAGGCCAGAGTAGGGACGGC             4.52
7  CCTACTGGGCCACAAAGGTCATTGATGCCGATAA             5.33
8  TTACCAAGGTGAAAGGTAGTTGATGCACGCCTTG              1.1
9  GCATATAGGTAATACGAGGTGAAAGTCCGATTGT            0.378

Record `GCGACTGGGGCATCAGCAGGTTATCATAACTTAA` . Reported PBM binding z-score: 0.933

Entry under test: `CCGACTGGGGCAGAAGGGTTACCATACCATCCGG` . Its PBM binding z-score was 0.666

* * *

Test system: RARg homodimer (NR concentration 270 nM)
Assay: PBM binding z-score (relative to random genomic background probes); higher = stronger binding; sequences stand for … in GC…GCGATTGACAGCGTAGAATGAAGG
// reported PBM binding z-score for each item listed

Past entries and their recorded results:
>>> print(df.to_string())
                        sequence_code                       experimental_target     measurement_name  measured_result
0  CGTACAAGGTCAGAGAGGTCAGTGAATGCCGAGT  RARg homodimer (NR concentration 270 nM)  PBM binding z-score             7.24
1  GGAAGGAGGGCATTCGAGTTGATAGCATGGCGAT  RARg homodimer (NR concentration 270 nM)  PBM binding z-score             1.34
2  ATCGAAAGGTCGACGAGGTGAGGATACACCGTTT  RARg homodimer (NR concentration 270 nM)  PBM binding z-score             4.37
3  TAGCCTAGGTCATCGGCCAGTATACCACGCGAAC  RARg homodimer (NR concentration 270 nM)  PBM binding z-score             4.72
4  AGTCAAAGTTCATCTAGGTAACGTAAGATATGCT  RARg homodimer (NR concentration 270 nM)  PBM binding z-score              6.2
5  ACGGACAGGTGAGTGAAGGTAACTCAGCTGGACG  RARg homodimer (NR concentration 270 nM)  PBM binding z-score            0.674

Summary for this sequence, `CGAACTAGGTCATCCAGGACTGTGAATACATTGA` : PBM binding z-score is 4.47

Recorded result, `GGAACGAGGGCATTCCAGTTGATAGCATGGCGAT` , PBM binding z-score: 1.38

Record summary for `CGAACTAGGTCATTGACAGGACAGAGAATAGTAA` : reported PBM binding z-score = 4.12

Looking up `GCTAGCAGGCCATTTGGGTGACTCAATGACGGGC` , I see its PBM binding z-score listed as 0.0183

Form: sequence = `TCTAGCAGGCCAGAGGCTCACTCAAGAGGTACGG` ; PBM binding z-score = -0.695

PBM binding z-score reported for this sequence `ACAGACAGGTGGTGAAGGTAACTCAGGCTATCAT` : -0.0161

Record summary for `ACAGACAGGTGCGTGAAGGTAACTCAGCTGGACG` : reported PBM binding z-score = -0.0259

# sequence `CCTCTGAGGACAACAGGAGGTCAGAGCTGCCAGA` ; its PBM binding z-score = 3.51

# PBM binding z-score (sequence: `TCTTGTAGATCAATAGAGGTTCAGAAAGTGCGCT` ) is 0.116

So, `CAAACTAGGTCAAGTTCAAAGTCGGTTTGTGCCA` ? Its PBM binding z-score was 5.92

Short answer for `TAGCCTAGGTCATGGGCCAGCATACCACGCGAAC` : PBM binding z-score was 4.36

GET /value?item= `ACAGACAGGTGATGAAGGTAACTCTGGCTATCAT` &field=PBM binding z-score returns 0.249

Value of measured PBM binding z-score for the entry `CGTCCAAGGCCAGCAGGTCAGTGAAAGCGACGTG` : 2
